Measured values drawn from ChEMBL document CHEMBL1817634 for this set.

MIC: recorded values
System: Mycobacterium tuberculosis
ASSAY REMARKS: Antitubercular activity against Mycobacterium tuberculosis H37Rv after 3 weeks by turbidity assay
Assay type: functional
CONDITION: 504 h
Write the numeric value and append its unit.

Reference set, count: 3
MOLECULE	READOUT VALUE
COc1ccc(C2CC(c3ccc4[nH]c5c(c4c3)CCCC5)=NN2)cc1 (stereo not drawn)	10 µg/mL
Oc1ccc(C2CC(c3ccc4[nH]c5c(c4c3)CCCC5)=NN2)cc1 (stereo not drawn)	3.5 µg/mL
Clc1ccccc1C1CC(c2ccc3[nH]c4c(c3c2)CCCC4)=NN1 (stereo not drawn)	5 µg/mL

-- ask Report measured MIC; entry is Oc1ccccc1C1CC(c2ccc3[nH]c4c(c3c2)CCCC4)=NN1 (stereo not drawn)
-- reply 4.5 µg/mL

-- ask Complete the entry with MIC for Clc1ccc(C2CC(c3ccc4[nH]c5c(c4c3)CCCC5)=NN2)cc1 (stereo not drawn)
-- reply 3.5 µg/mL

-- ask Consider the molecule CC1CC(c2ccc3[nH]c4c(c3c2)CCCC4)=NN1 (stereo not drawn) and give its recorded MIC.
-- reply 3.5 µg/mL
